Protein target, amino acids: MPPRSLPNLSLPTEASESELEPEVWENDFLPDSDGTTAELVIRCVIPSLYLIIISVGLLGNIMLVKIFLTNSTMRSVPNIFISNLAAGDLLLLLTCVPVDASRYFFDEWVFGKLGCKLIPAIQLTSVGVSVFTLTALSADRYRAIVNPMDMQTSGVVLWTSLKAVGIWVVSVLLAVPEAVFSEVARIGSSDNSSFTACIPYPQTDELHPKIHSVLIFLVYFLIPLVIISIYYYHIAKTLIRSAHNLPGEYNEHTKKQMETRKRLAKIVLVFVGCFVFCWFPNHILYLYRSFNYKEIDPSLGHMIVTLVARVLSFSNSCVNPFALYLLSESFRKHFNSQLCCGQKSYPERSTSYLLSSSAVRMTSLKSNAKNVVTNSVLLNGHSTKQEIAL
Where a SMILES comes first, the peptide text is derived from it. [ ]: non-standard residue; d: D form. pGlu = O=C1CC[C@@H](C(=O)O)N1
Examples of compounds with documented Ki follow.

Answered cases to consult:
CC(C)C[C@H](NC(=O)[C@H](Cc1cnc[nH]1)NC(=O)CNC(=O)[C@@H](NC(=O)[C@H](C)NC(=O)[C@H](Cc1c[nH]c2ccccc12)NC(=O)[C@H](CCC(N)=O)NC(=O)[C@H](N)Cc1ccccc1)C(C)C)C(=O)NN [DPhe6-Bn(6-13)hydrazide]: > 10 µM
CSCC[C@H](NC(=O)[C@H](Cc1ccccc1)NC(=O)[C@H](Cc1cnc[nH]1)NC(=O)CNC(=O)[C@@H](NC(=O)[C@H](CCCN=C(N)N)NC(=O)[C@H](Cc1c[nH]c2ccccc12)NC(=O)[C@H](CCC(N)=O)NC(=O)[C@H](CC(N)=O)NC(=O)CNC(=O)[C@H](CC(C)C)NC(=O)[C@H](CO)NC(=O)[C@H](CCC(N)=O)NC(=O)[C@@H]1CCC(=O)N1)C(C)C)C(N)=O [CAS_31362-50-2] ([pGlu]QSLGNQWRVGHFM-NH2): > 10 µM

Recorded Ki (compound CSCC[C@H](NC(=O)[C@H](CC(C)C)NC(=O)[C@H](CO)NC(=O)CNC(=O)[C@@H](NC(=O)[C@H](C)NC(=O)[C@H](Cc1c[nH]c2ccccc12)NC(=O)[C@H](CC(C)C)NC(=O)[C@@H]1CCC(=O)N1)C(C)C)C(N)=O [Leu8-phyllolitorin] ([pGlu]LWAVGSLM-NH2) ): > 10 µM

###

Target: Gastrin-releasing peptide receptor (Rattus norvegicus, UniProt P52500)
Sequence (P52500 whole entry N28S): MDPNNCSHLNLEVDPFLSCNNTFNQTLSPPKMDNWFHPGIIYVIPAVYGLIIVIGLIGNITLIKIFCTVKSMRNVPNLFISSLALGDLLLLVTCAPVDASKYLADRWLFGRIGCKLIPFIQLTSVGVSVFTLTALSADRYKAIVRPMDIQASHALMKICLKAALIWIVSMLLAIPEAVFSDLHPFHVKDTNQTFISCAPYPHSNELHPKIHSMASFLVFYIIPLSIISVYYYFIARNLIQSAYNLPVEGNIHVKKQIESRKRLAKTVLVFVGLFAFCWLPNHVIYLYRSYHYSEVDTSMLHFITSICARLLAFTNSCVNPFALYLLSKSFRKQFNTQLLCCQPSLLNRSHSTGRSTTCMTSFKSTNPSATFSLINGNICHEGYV
Where a SMILES comes first, the peptide text is derived from it. [ ]: non-standard residue; d: D form. The star is where a group is joined. X1 = CC(C)C[C@@H](CN[C@@H](CC(C)C)C(N)=O)N*; pGlu = O=C1CC[C@@H](C(=O)O)N1
Items are presented alongside their recorded pKi.
Formally, pKi is defined as -log10 of the concentration c, with c in mol/L.

Reference set, count: 3
CSCC[C@H](NC(=O)[C@H](Cc1ccccc1)NC(=O)[C@H](Cc1c[nH]cn1)NC(=O)CNC(=O)[C@@H](NC(=O)[C@H](C)NC(=O)[C@H](Cc1c[nH]c2ccccc12)NC(=O)[C@H](CCC(N)=O)NC(=O)[C@@H]1CCCN1C(=O)[C@@H](NC(=O)[C@@H]1CCC(=O)N1)C(C)C)C(C)C)C(N)=O [CAS_29451-71-6] ([pGlu]VPQWAVGHFM-NH2): 8.70
CC(C)C[C@@H](CN[C@@H](CC(C)C)C(N)=O)NC(=O)[C@H](Cc1cnc[nH]1)NC(=O)CNC(=O)[C@@H](NC(=O)[C@H](C)NC(=O)[C@H](Cc1c[nH]c2ccccc12)NC(=O)[C@H](CCC(N)=O)NC(=O)[C@H](CC(N)=O)NC(=O)CNC(=O)[C@H](CC(C)C)NC(=O)[C@H](CCCN=C(N)N)NC(=O)[C@H](CCC(N)=O)NC(=O)[C@@H]1CCC(=O)N1)C(C)C [Leu13,Psi(CH2NH),Leu14-BN] ([pGlu]QRLGNQWAVGH-X1): 6.37
CSCC[C@H](NC(=O)[C@H](Cc1ccccc1)NC(=O)[C@H](Cc1cnc[nH]1)NC(=O)CNC(=O)[C@@H](NC(=O)[C@H](C)NC(=O)[C@H](Cc1c[nH]c2ccccc12)NC(=O)[C@H](CCC(N)=O)NC(=O)[C@H](CC(N)=O)NC(=O)CNC(=O)[C@H](CC(C)C)NC(=O)[C@H](CCCN=C(N)N)NC(=O)[C@H](CCC(N)=O)NC(=O)[C@@H]1CCC(=O)N1)C(C)C)C(N)=O: 9.11

Kindly consider the entry below.
According to the records, this molecule CCCCNC(=O)[C@H](CC(C)C)NC(=O)[C@H](Cc1cnc[nH]1)NC(=O)[C@@H](C)NC(=O)[C@@H](NC(=O)[C@H](C)NC(=O)[C@H](Cc1c[nH]c2ccccc12)NC(=O)[C@H](CCC(N)=O)NC(=O)[C@H](N)Cc1ccc(O)cc1)C(C)C [DTyr6,DAla11-Bn(6-13)butylamide] displays pKi of 8.22
